These data points were gathered from PubChem BioAssay (NCATS).

Assay: qHTS assay for small molecule disruptors of the mitochondrial membrane potential - 5 hr assay (AID 651755); further: nearly all actives have a fitted effect of over 40% in size; further: potency means the concentration at half of the fitted maximal effect
Details: JC-1-type ratio dye; series mostly up to 92.2 µM
Results filed as inconclusive are left out. Active and inactive are the calls of the source. The call rests on the fitted dose curve.
quantity-measured: Potency

{"molecule": "Nc1ccc(N=Nc2ccccc2)c(N)n1", "reported": "16.8 µM (active)"}
{"molecule": "CC1=CC(=O)NS(=O)(=O)O1", "reported": "inactive"}
{"molecule": "CC1=CCC2CC1C2(C)C (stereo not drawn)", "reported": "inactive"}

* * *

System: ECU
Assay: qHTS profiling for inhibitors of Plasmodium falciparum proliferation (AID 504749); further: nearly all actives have a fitted effect of over 60% in size
Settings: P. falciparum in erythrocytes, SYBR Green DNA, 72 h; series mostly up to 28.7 µM
Inconclusive results are not listed. Calls of active or inactive are those of the source. The call rests on the fitted dose curve; in most records, active means well fitted inhibition curve with a large enough effect; inconclusive means small, poorly fitted or top-dose-only effect; inactive means flat fitted curve, though single readings scatter.
// classify into YES = active, NO = inactive

{"compound": "O=C(O)/C=C/c1ccccc1", "assigned-label": "NO"}
{"compound": "CCCCC(CC)COS(=O)(=O)O (stereo unspecified)", "assigned-label": "NO"}
{"compound": "CCCCCCCCCCCCCCCCCC(=O)OCC(C)O (stereo unspecified)", "assigned-label": "NO"}
{"compound": "CNC(=O)c1c(I)c(C(=O)NCC(=O)Nc2c(I)c(C(=O)O)c(I)c(C(=O)NCCO)c2I)c(I)c(N(C)C(C)=O)c1I", "assigned-label": "NO"}
{"compound": "NC(N)=O", "assigned-label": "NO"}

[Q] Answer briefly: the call reported for `CN1CCC(OC(=O)C(Oc2ccc(Cl)cc2)Oc2ccc(Cl)cc2)CC1` in this assay.
[A] NO

[Q] Answer briefly: the call reported for `CN(C)c1ccc(C(=C2C=CC(=[N+](C)C)C=C2)c2c(O)c(S(=O)(=O)[O-])cc3cc(S(=O)(=O)O)ccc23)cc1` in this assay.
[A] NO

* * *

Test system: TAB165
Assay: qHTS profiling for inhibitors of Plasmodium falciparum proliferation (AID 504749); further: nearly all actives have a fitted effect of over 60% in size
Settings: P. falciparum in erythrocytes, SYBR Green DNA, 72 h; series mostly up to 28.7 µM
Inconclusive results are not listed. Active and inactive are the calls of the source. Calls follow the shape of the dose curve; as a rule, active = well fitted inhibition curve with a large enough effect; inconclusive = small, poorly fitted or top-dose-only effect; inactive = flat fitted curve, though single readings scatter.
// classify into active, inactive

{"molecule": "CC(CCc1ccc(O)cc1)NCC(O)c1ccc(O)cc1 (stereo not drawn)", "assigned-label": "inactive"}
{"molecule": "CC(CN(C)C)CN1c2ccccc2Sc2ccc(C(F)(F)F)cc21 (stereo not drawn)", "assigned-label": "active"}
{"molecule": "OCCCNc1ccccc1", "assigned-label": "inactive"}
{"molecule": "CC(=O)Nc1c(I)c(C(=O)O)c(I)c(N(C)C(C)=O)c1I", "assigned-label": "inactive"}
{"molecule": "O=[N+]([O-])c1c(Cl)cccc1-c1c[nH]cc1Cl", "assigned-label": "inactive"}
{"molecule": "FC(F)(F)C(F)(F)C(F)(F)C(F)(F)C(F)(F)C(F)(F)F", "assigned-label": "inactive"}

Moving on to the next molecule.
[Q] Answer briefly: the call reported for `CC/C(=C(/CC)c1ccc(OP(=O)(O)O)cc1)c1ccc(OP(=O)(O)O)cc1` in this assay.
[A] inactive

* * *

Tested on: CP191
Assay: qHTS profiling for inhibitors of Plasmodium falciparum proliferation (AID 504749); further: nearly all actives have a fitted effect of over 60% in size
Details: P. falciparum in erythrocytes, SYBR Green DNA, 72 h; series mostly up to 28.7 µM
Inconclusive results are not listed. The source made the active and inactive calls. Calls come from the whole dose curve; as a rule, active = well fitted inhibition curve with a large enough effect; inconclusive = small, poorly fitted or top-dose-only effect; inactive = flat fitted curve, though single readings scatter.
quantity-measured: outcome

{"molecule": "CN(C)CCCSc1ccccc1NC(=O)/C=C/c1ccccc1", "outcome": "inactive"}
{"molecule": "CC(C)(C)CC(C)(C)c1ccc(OCCO)cc1", "outcome": "inactive"}
{"molecule": "OCC(O)CO", "outcome": "inactive"}
{"molecule": "CC(CNC(=O)c1cccnc1)NC(=O)c1cccnc1 (stereo not given)", "outcome": "inactive"}

[Q] Item `Cc1cccc(Nc2ncccc2C(=O)O)c1C` has what recorded outcome?
[A] inactive

* * *

Assay: Cell Viability - LYMP2-012 (AID 982);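 further: cellular ATP by luciferase luminescence where a drop means cytotoxicity; cells exposed to compound for one day before reading; nearly all actives have a fitted effect of over 55% in size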
Details: LYMP2-012 lymphoblastoid cell viability qHTS; series mostly up to 92.2 µM
Inconclusive results are not listed. Calls of active or inactive are those of the source. Calls follow the shape of the dose curve; as a rule, active = well fitted cell-killing curve with a large enough effect; inconclusive = small, poorly fitted or top-dose-only effect; inactive = flat fitted curve, though single readings scatter.
// classify into active, inactive

Some solved cases for reference:
{"molecule": "Oc1ccc(/C=C/c2cc(O)cc(O)c2)cc1", "assigned-label": "inactive"}
{"molecule": "O=P(O)(O)O", "assigned-label": "inactive"}
{"molecule": "O=c1n(CC2CO2)c(=O)n(CC2CO2)c(=O)n1CC1CO1 (stereo not given)", "assigned-label": "active"}
{"molecule": "CCCCO", "assigned-label": "inactive"}
{"molecule": "CC(C)(C)CC(C)(C)c1ccc(OCCO)cc1", "assigned-label": "inactive"}
{"molecule": "OCc1ccccc1", "assigned-label": "inactive"}
{"molecule": "Oc1cccc(O)c1O", "assigned-label": "inactive"}
{"molecule": "CC(C)O", "assigned-label": "inactive"}
{"molecule": "CCOC(C)OCC", "assigned-label": "inactive"}
{"molecule": "C=C1C(CCl)(CCl)C2(Cl)C(Cl)C(Cl)C1(Cl)C2(Cl)Cl (stereo not given)", "assigned-label": "active"}

[Q] Answer briefly: the call reported for `Cc1ncc[nH]1` in this assay.
[A] inactive

[Q] Answer briefly: the call reported for `C/C=C/C=C/C(=O)O` in this assay.
[A] inactive

[Q] Answer briefly: the call reported for `Nc1ccc(N=Nc2ccccc2)c(N)n1` in this assay.
[A] inactive

[Q] Answer briefly: the call reported for `NC(N)=O` in this assay.
[A] inactive

[Q] Answer briefly: the call reported for `Nc1ncnc2c1ncn2[C@H]1CC[C@@H](CO)O1` in this assay.
[A] inactive

* * *

Test system: DIV17
Test: qHTS profiling for inhibitors of Plasmodium falciparum proliferation (AID 504749); further: nearly all actives have a fitted effect of over 60% in size
Conditions: P. falciparum in erythrocytes, SYBR Green DNA, 72 h; series mostly up to 28.7 µM
Inconclusive results are not listed. Active and inactive are the calls of the source. Calls follow the shape of the dose curve; as a rule, active = well fitted inhibition curve with a large enough effect; inconclusive = small, poorly fitted or top-dose-only effect; inactive = flat fitted curve, though single readings scatter.
// classify into label 1 = active, label 0 = inactive

{"molecule": "OCC(O)CO", "assigned-label": "label 0"}
{"molecule": "CCC(O)c1ccccc1 (centres undefined)", "assigned-label": "label 0"}
{"molecule": "Cn1cc(NC(=O)c2cc(NC(=O)c3cc(NC=O)cn3C)cn2C)cc1C(=O)NCCC(=N)N", "assigned-label": "label 1"}

[Q] Answer briefly: the call reported for CS(=O)(=O)OCC(O)C(O)COS(C)(=O)=O (centres undefined) in this assay.
[A] label 0

* * *

System: CP305
Experiment: qHTS profiling for inhibitors of Plasmodium falciparum proliferation (AID 504749); further: nearly all actives have a fitted effect of over 60% in size; further: potency means the concentration at half of the fitted maximal effect
Conditions: P. falciparum in erythrocytes, SYBR Green DNA, 72 h; series mostly up to 28.7 µM
Results filed as inconclusive are left out. Activity calls are given as the source filed them. Calls come from the whole dose curve; as a rule, active = well fitted inhibition curve with a large enough effect; inconclusive = small, poorly fitted or top-dose-only effect; inactive = flat fitted curve, though single readings scatter.
quantity-measured: Potency

The following compounds have reported results that may help.
{"compound": "CCCCCCCCCCCCCCCCCC[N+](C)(C)CCC[Si](OC)(OC)OC", "Potency": "inactive"}
{"compound": "CCC(=O)c1ccc2c(c1)N(CCCN1CCN(CCO)CC1)c1ccccc1S2", "Potency": "10.7 µM (active)"}
{"compound": "NCC(O)CC(=O)O (stereo unspecified)", "Potency": "inactive"}
{"compound": "Nc1nccs1", "Potency": "inactive"}
{"compound": "Cc1cccc(Nc2ncccc2C(=O)O)c1C", "Potency": "inactive"}

Continue with the next compound.
[Q] Lab request: please report Potency under test system CP305 for O=S(=O)(O)CC(S)CS (stereo unspecified)
[A] inactive

* * *

Assay: S16 Schwann cell PMP22 intronic element firefly luciferase assay (AID 624032);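 further: plate controls were DMSO for no effect and PTC124 positive control mean for full effect; nearly all actives have a fitted effect of over 30% in size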
Details: S16 rat Schwann cells, PMP22 element FLuc, 24 h; series mostly up to 57.5 µM
Inconclusive results are not listed. Calls of active or inactive are those of the source. Calls come from the whole dose curve; as a rule, active = well fitted inhibition curve with a large enough effect; inconclusive = small, poorly fitted or top-dose-only effect; inactive = no such curve, though single readings can be large or run the other way.
quantity-measured: outcome

{"molecule": "C/C(=C\\C(=O)OCCCCCCCCC(=O)O)C[C@@H]1OC[C@H](C[C@@H]2O[C@H]2[C@@H](C)[C@H](C)O)[C@@H](O)[C@H]1O", "outcome": "inactive"}
{"molecule": "CC(C)(C)CC(C)(C)c1cc(Cc2cc(C(C)(C)CC(C)(C)C)cc(-n3nc4ccccc4n3)c2O)c(O)c(-n2nc3ccccc3n2)c1", "outcome": "inactive"}
{"molecule": "[O]=[Bi][O][Bi]=[O]", "outcome": "inactive"}
{"molecule": "C(=C\\c1ccncc1)/c1ccccc1", "outcome": "inactive"}
{"molecule": "O=C(O)[C@H]1C(=CCO)O[C@H]2CC(=O)N12", "outcome": "inactive"}
{"molecule": "CC(C)(Oc1ccc(C2CCCc3ccccc32)cc1)C(=O)O (configuration not stated)", "outcome": "inactive"}

Continue with the next molecule.
[Q] Item `O=C(O)CC/C=C\CC[C@@H]1[C@@H](N2CCCCC2)[C@@H](O)C[C@@H]1OCc1ccc(-c2ccccc2)cc1` has what recorded outcome?
[A] inactive

* * *

# maps each entry to its activity, negative = cell killing
Assay: Drug repurposing screens with cells derived from glioblastoma tumor samples (AID 1345199); further: on the % scale 0 is the no-effect control and ±100 the full control effect; nearly all actives have a fitted effect of over 40% in size
Conditions: GBM patient neurospheres viability, ATP luminescence, 48 h; at 21.2 µM (top of the series); tumour line B
Inconclusive results are not listed.
The figure you give is taken to be in %; do not add the unit.

The following compounds have reported results that may help.
{"compound": "CO[C@H]1C[C@H](O[C@H]2[C@H](C)[C@@H](O[C@@H]3O[C@H](C)C[C@H](N(C)C)[C@H]3O)[C@@H](C)C[C@]3(CO3)C(=O)[C@H](C)[C@@H](O)[C@@H](C)[C@@H](C)OC(=O)[C@@H]2C)O[C@@H](C)[C@@H]1O", "quantity-measured": "activity, negative = cell killing", "reported": -0.194}
{"compound": "NC(=O)c1ccc[n+]([C@@H]2O[C@H](COP(=O)([O-])OP(=O)(O)OC[C@H]3O[C@@H](n4cnc5c(N)ncnc54)[C@H](O)[C@@H]3O)[C@@H](O)[C@H]2O)c1", "quantity-measured": "activity, negative = cell killing", "reported": 8.41}
{"compound": "NC[C@H]1O[C@H](O[C@H]2[C@H](O)[C@@H](O[C@H]3O[C@H](CO)[C@@H](O)[C@H](N)[C@H]3O)[C@H](N)C[C@@H]2N)[C@H](N)C[C@@H]1O", "quantity-measured": "activity, negative = cell killing", "reported": -9.72}

[Q] Item CC1CS(=O)(=O)CCN1/N=C/c1ccc([N+](=O)[O-])o1 (centres undefined) has what recorded activity, negative = cell killing?
[A] -10

[Q] Item `Cn1nnnc1SCC1=C(C(=O)O)N2C(=O)[C@@H](NC(=O)[C@H](O)c3ccccc3)[C@H]2SC1` has what recorded activity, negative = cell killing?
[A] -12.5

[Q] Item NC(=O)OCC(O)COc1ccc(Cl)cc1 (centres undefined) has what recorded activity, negative = cell killing?
[A] -15.4

[Q] Item CCN1C(=O)NC(c2ccccc2)C1=O (centres undefined) has what recorded activity, negative = cell killing?
[A] -3.29

[Q] Item CN[C@@H]1[C@@H](O)[C@@H](O[C@@H]2[C@@H](O)[C@H](OC3OC(CN)=CCC3N)[C@@H](N)C[C@H]2N)OC[C@]1(C)O (some centres undefined) has what recorded activity, negative = cell killing?
[A] -6.65

[Q] Item `C=CC[N@@+]12CC[C@@]34c5ccccc5N5/C=C6/[C@H]7C[C@H]8[C@@]9(CC[N@@+]8(CC=C)C/C7=C/CO)c7ccccc7N(/C=C(/[C@@H](C[C@@H]31)/C(=C\CO)C2)[C@H]54)[C@@H]69` has what recorded activity, negative = cell killing?
[A] -8.94

[Q] Item C=CC1=C(C(=O)O)N2C(=O)[C@@H](NC(=O)/C(=N/OCC(=O)O)c3csc(N)n3)[C@H]2SC1 (stereo in doubt) has what recorded activity, negative = cell killing?
[A] -6.13

[Q] Item `C#C[C@]1(O)CC[C@H]2[C@@H]3CCC4=C(CCC(=O)C4)[C@H]3CC[C@@]21C` has what recorded activity, negative = cell killing?
[A] -8.06

[Q] Item Nc1nc2c(c(=O)[nH]1)N(C=O)C(CNc1ccc(C(=O)N[C@@H](CCC(=O)O)C(=O)O)cc1)CN2 (some centres undefined) has what recorded activity, negative = cell killing?
[A] -5.52

[Q] Item NC(N)=NCC1COC2(CCCCC2)O1 (centres undefined) has what recorded activity, negative = cell killing?
[A] -14.2

[Q] Item `CC(=O)Oc1cc(C(F)(F)F)ccc1C(=O)O` has what recorded activity, negative = cell killing?
[A] -19.3

[Q] Item `CC(=O)N=c1sc(S(N)(=O)=O)nn1C` has what recorded activity, negative = cell killing?
[A] -5.71

[Q] Item `COc1ccc([C@@H]2CC(=O)c3c(O)cc(O[C@@H]4O[C@H](CO[C@@H]5O[C@@H](C)[C@H](O)[C@@H](O)[C@H]5O)[C@@H](O)[C@H](O)[C@H]4O)cc3O2)cc1O` has what recorded activity, negative = cell killing?
[A] -4.88

[Q] Item COC1[C@@H](O[C@@H]2O[C@H](C)[C@@H](O[C@H]3C[C@@](C)(O)[C@H](OC(=O)CC(C)C)[C@H](C)O3)[C@H](N(C)C)[C@H]2O)[C@@H](CC=O)C[C@@H](C)[C@@H](O)/C=C/C=C/C[C@@H](C)OC(=O)C[C@H]1OC(C)=O (some centres undefined) has what recorded activity, negative = cell killing?
[A] -12.1

[Q] Item C[C@@H]1NC(=O)[C@@H](N)CNC(=O)[C@H](C2CCNC(N)=N2)NC(=O)/C(=C/NC(N)=O)NC(=O)[C@H](CNC(=O)C[C@@H](N)CCCN)NC1=O (some centres undefined) has what recorded activity, negative = cell killing?
[A] -11.2

[Q] Item `CC(C)(O/N=C(\C(=O)N[C@@H]1C(=O)N2C(C(=O)[O-])=C(C[n+]3ccccc3)CS[C@H]12)c1csc(N)n1)C(=O)O` has what recorded activity, negative = cell killing?
[A] -13.9
